molecular target: K-Ras WT (G domain, residues 1-166) (human, UniProt P01116-2 1-166, biotinylated for BLI (site not stated)); experiment: BLI; GppNHp-loaded
pKd: −log10 of the molar value.
Endpoint Label: pKd

> print(dat)
                                     binder  experimental.value
1  SUMO-R11.1.6 fusion protein (designed binder) ATVKFTHQGEEKQVDISKIKWVIRWGQYIWFKYDEDGGAKGWGYVSEKDAPKELLQMLKKR                7.39
